biological target: human P2X2/3 receptor (Homo sapiens (Human), UniProt P56373+Q9UBL9); assay: Intracellular calcium measurement (FLIPR, Fluo-4) of antagonist activity at human P2X2/3 receptors; type: cell-based; conditions: human P2X2/3, FLIPR calcium assay, agonist α,β-Me-ATP; read-out: hP2X2/3 IC50
Sequence (P56373 whole entry): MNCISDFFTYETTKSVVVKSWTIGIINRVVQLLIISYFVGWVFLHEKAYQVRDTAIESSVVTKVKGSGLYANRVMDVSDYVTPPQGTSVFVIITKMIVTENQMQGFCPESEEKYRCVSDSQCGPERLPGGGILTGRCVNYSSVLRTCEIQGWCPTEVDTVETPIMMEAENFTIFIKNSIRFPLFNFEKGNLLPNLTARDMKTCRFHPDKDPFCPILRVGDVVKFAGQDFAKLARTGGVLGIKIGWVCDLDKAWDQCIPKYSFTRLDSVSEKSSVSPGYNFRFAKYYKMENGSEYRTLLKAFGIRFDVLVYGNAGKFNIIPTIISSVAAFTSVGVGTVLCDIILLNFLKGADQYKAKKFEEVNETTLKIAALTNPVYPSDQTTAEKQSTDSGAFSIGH
Sequence (Q9UBL9 whole entry): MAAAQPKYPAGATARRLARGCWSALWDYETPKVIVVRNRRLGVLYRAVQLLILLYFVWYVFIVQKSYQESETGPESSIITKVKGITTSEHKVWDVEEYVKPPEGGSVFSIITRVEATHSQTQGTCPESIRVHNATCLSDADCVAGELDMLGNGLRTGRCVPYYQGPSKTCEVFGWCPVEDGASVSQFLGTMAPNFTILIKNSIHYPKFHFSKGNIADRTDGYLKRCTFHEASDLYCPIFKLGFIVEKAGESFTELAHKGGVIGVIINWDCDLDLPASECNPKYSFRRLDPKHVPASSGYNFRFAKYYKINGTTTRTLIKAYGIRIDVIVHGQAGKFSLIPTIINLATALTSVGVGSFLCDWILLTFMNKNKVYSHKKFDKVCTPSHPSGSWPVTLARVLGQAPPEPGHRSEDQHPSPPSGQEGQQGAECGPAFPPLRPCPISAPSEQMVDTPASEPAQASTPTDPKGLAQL
Listed molecules paired with reported pIC50
Lab note — pIC50 values are minus log10 of concentrations in M.

Solved entries:
MOLECULE: Cc1cnc(-c2cc(OC[C@H]3COCCN3C)cc(C(=O)N[C@H](C)c3ccc(C(F)(F)F)nc3)c2)s1
ASSAY_VALUE: 6.14
--
MOLECULE: Cc1cnc(-c2cc(OC[C@H]3CN(C)C(=O)CO3)cc(C(=O)N[C@H](C)c3cnc(C(F)(F)F)nc3)c2)s1
ASSAY_VALUE: 5.76

Now for another entry.
Look at this molecule and give its reported pIC50. `Cc1cnc(-c2cc(OC3CCN(C)CC3)cc(C(=O)N[C@H](C)c3cnc(C(F)(F)F)nc3)c2)s1`
6.02

====

Listed molecules paired with reported log10(IC50)
target: human P2X2/3 receptor (Homo sapiens (Human), UniProt P56373+Q9UBL9); assay: Intracellular calcium measurement (FLIPR, Fluo-4) of antagonist activity at human P2X2/3 receptors; assay type: cell-based; conditions: human P2X2/3, FLIPR calcium assay, agonist α,β-Me-ATP; read-out: hP2X2/3 IC50
In our notation, the value equals log10 of IC50 in nM.

MOLECULE: Cc1ccc([C@@H](C)NC(=O)c2cc(O[C@H]3CCOC3)cc(-c3ncc(C)s3)c2)nc1 [Example 28]
ASSAYED_TARGET: human P2X2/3 receptor (Homo sapiens (Human), UniProt P56373+Q9UBL9)
log10(IC50): 2.08
//
MOLECULE: Cc1cnc(-c2cc(OC[C@H]3COCCO3)cc(C(=O)N[C@H](C)c3cnc(C(F)(F)F)nc3)c2)s1 [Example 178]
ASSAYED_TARGET: human P2X2/3 receptor (Homo sapiens (Human), UniProt P56373+Q9UBL9)
log10(IC50): 3.27
//
MOLECULE: CC(C)c1cnc(-c2cc(OC[C@@H]3CCOC3)cc(C(=O)N[C@H](C)c3ccc(C(F)(F)F)nn3)c2)s1 [Example 293]
ASSAYED_TARGET: human P2X2/3 receptor (Homo sapiens (Human), UniProt P56373+Q9UBL9)
log10(IC50): 3.06
//
MOLECULE: Cc1cnc(-c2cc(OC3CC4(C3)CN(C(=O)OC(C)(C)C)C4)cc(C(=O)N[C@H](C)c3cnc(C(F)(F)F)nc3)c2)s1 [Example 146]
ASSAYED_TARGET: human P2X2/3 receptor (Homo sapiens (Human), UniProt P56373+Q9UBL9)
log10(IC50): 2.20

Now for another entry.
Enter reported log10(IC50) observed with human P2X2/3 receptor (Homo sapiens (Human), UniProt P56373+Q9UBL9) for CCOC(=O)N1CC[C@H](Oc2cc(C(=O)N[C@H](C)c3cnc(C(F)(F)F)nc3)cc(-c3ncc(C)s3)c2)C1 [Example 228]
1.73

====

experiment: In vivo pharmacokinetics in dogs; conditions: Beagle, plasma, po; dog, 1 mg/kg p.o.; read-out: Dog t½ p.o. (converted)
READOUT_KIND: half-life (h)
Just the number in h, nothing appended.

Look at this compound and give its reported half-life. `Cc1cnc(-c2cc(O[C@@H]3CCOC3)cc(C(=O)N[C@H](C)c3cnc(C(F)(F)F)nc3)c2)s1`
12

====

molecular target: human P2X3 receptor (Homo sapiens (Human)); experiment: Intracellular calcium measurement (FLIPR, Fluo-4) of antagonist activity at human P2X3 receptors; assay type: cell-based; conditions: read-out: human P2X3 receptor IC50
READOUT_KIND: pIC50
Lab note — pIC50 values are minus log10 of concentrations in M.

Look at this compound and give its reported pIC50. `Cc1cnc(-c2cc(OC[C@H]3CN(C)CCO3)cc(C(=O)N[C@H](C)c3cnc(C(F)(F)F)nc3)c2)s1`
8.15

Look at this compound and give its reported pIC50. `Cc1cnc(-c2cc(OC3COC3)cc(C(=O)N[C@H](C)c3cnc(C(F)(F)F)nc3)c2)s1`
7.85

====

molecular target: CYP3A4 (Homo sapiens (Human)); experiment: Pre-incubation CYP inhibition assay, CYP3A4 (time dependent inhibition); format: in vitro ADME; conditions: human liver microsomes, probe midazolam, 30 min pre-incubation; read-out: CYP3A4 with preincubation IC50
Sequence (P08684 whole entry): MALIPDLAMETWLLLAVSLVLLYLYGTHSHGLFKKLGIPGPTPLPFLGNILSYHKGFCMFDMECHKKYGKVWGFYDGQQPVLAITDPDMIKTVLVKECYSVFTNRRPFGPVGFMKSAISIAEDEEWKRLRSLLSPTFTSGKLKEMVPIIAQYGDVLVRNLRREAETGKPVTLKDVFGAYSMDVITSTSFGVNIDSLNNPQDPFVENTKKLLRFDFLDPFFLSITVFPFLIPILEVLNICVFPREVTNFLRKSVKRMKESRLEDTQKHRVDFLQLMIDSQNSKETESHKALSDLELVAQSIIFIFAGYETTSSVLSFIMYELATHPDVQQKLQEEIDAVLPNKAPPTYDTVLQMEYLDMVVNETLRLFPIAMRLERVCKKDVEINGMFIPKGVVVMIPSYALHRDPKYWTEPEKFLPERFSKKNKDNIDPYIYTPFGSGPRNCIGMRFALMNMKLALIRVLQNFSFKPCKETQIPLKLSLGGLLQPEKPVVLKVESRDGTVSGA
READOUT_KIND: IC50

Look at this compound and give its reported IC50. Cc1cnc(-c2cc(OC(C)C(C)O)cc(C(=O)N[C@H](C)c3cnc(C(F)(F)F)nc3)c2)s1 (single isomer, unassigned)
> 20 µM

====

assay: In vitro metabolic stability in liver microsomes (calculation of CL and Fmax); assay type: in vitro ADME, human; settings: 1 μM, 0.5 mg/mL protein, maximal oral bioavailability calculated from half-life
READOUT_KIND: Human liver microsome Fmax (%)
Just the number in %, nothing appended.

MOLECULE: Cc1cnc(-c2cc(OC(C)C(C)O)cc(C(=O)N[C@H](C)c3ccc(C(F)(F)F)nn3)c2)s1 (single isomer, unassigned)
Human liver microsome Fmax, %: 74

Look at this molecule and give its reported Human liver microsome Fmax. Cc1cnc(-c2cc(OC(C)C(C)O)cc(C(=O)N[C@H](C)c3cnc(C(F)(F)F)nc3)c2)s1 (single isomer, unassigned) [Example 163]
100

Look at this molecule and give its reported Human liver microsome Fmax. Cc1cnc(-c2cc(OC(C)C(C)O)cc(C(=O)N[C@H](C)c3cnc(C(F)(F)F)nc3)c2)s1 (single isomer, unassigned) [Example 339]
94

Look at this molecule and give its reported Human liver microsome Fmax. `Cc1cnc(-c2cc(O[C@@H]3CCOC3)cc(C(=O)N[C@H](C)c3cnc(C(F)(F)F)nc3)c2)s1`
57

====

molecular target: human P2X2/3 receptor (Homo sapiens (Human), UniProt P56373+Q9UBL9); test: Intracellular calcium measurement (FLIPR, Fluo-4) of antagonist activity at human P2X2/3 receptors; assay type: cell-based; details: human P2X2/3, FLIPR calcium assay, agonist α,β-Me-ATP; read-out: hP2X2/3 IC50
Listed compounds paired with reported IC50
Just the number in nM, nothing appended.

Solved entries:
COMPOUND: CCc1cnc(-c2cc(O[C@@H]3CCOC3)cc(C(=O)N[C@H](C)c3ccc(C)nn3)c2)s1 [Example 240]
IC50 [nM]: 35
//
COMPOUND: Cc1cnc(-c2cc(OC[C@@H]3CNC(=O)CO3)cc(C(=O)N[C@H](C)c3cnc(C(F)(F)F)nc3)c2)s1 [Example 400]
IC50 [nM]: 1480
//
COMPOUND: Cc1cnc(-c2cc(OC[C@H]3COCCN3C)cc(C(=O)N[C@H](C)c3ccc(C(F)(F)F)nn3)c2)s1 [Example 388]
IC50 [nM]: 1350
//
COMPOUND: Cc1cnc([C@@H](C)NC(=O)c2cc(OCC3CCOCC3)cc(-c3ncc(C)s3)c2)cn1 [Example 94]
IC50 [nM]: 132
//
COMPOUND: CC(C)c1cnc(-c2cc(OC[C@@H]3CCOC3)cc(C(=O)N[C@H](C)c3cnc(C(F)(F)F)nc3)c2)s1 [Example 266]
IC50 [nM]: 367
//
COMPOUND: Cc1cnc(-c2cc(O[C@H]3CCN(C(C)C)C3)cc(C(=O)N[C@H](C)c3cnc(C(F)(F)F)nc3)c2)s1 [Example 225]
IC50 [nM]: 1140

Now for another entry.
Look at this compound and give its reported IC50. Cc1cnc(-c2cc(OC[C@@H]3CCOC3)cc(C(=O)N[C@H](C)c3cnc(C(F)(F)F)nc3)c2)s1 [Example 73]
101

====

target: human P2X2/3 receptor (Homo sapiens (Human), UniProt P56373+Q9UBL9); assay: Intracellular calcium measurement (FLIPR, Fluo-4) of antagonist activity at human P2X2/3 receptors; format: cell-based; settings: human P2X2/3, FLIPR calcium assay, agonist α,β-Me-ATP; read-out: hP2X2/3 IC50
READOUT_KIND: IC50 (nM)
Just the number in nM, nothing appended.

Solved entries:
MOLECULE: Cc1ccc([C@@H](C)NC(=O)c2cc(Oc3nnc(C)s3)cc(-c3ncc(C)s3)c2)nn1
ASSAYED_TARGET: human P2X2/3 receptor (Homo sapiens (Human), UniProt P56373+Q9UBL9)
ASSAY_VALUE: 1450

MOLECULE: Cc1ccc(CNC(=O)c2cc(OC[C@H]3CCCO3)cc(-c3ncc(C)s3)c2)nn1
ASSAYED_TARGET: human P2X2/3 receptor (Homo sapiens (Human), UniProt P56373+Q9UBL9)
ASSAY_VALUE: 1440

MOLECULE: Cc1ccc([C@@H](C)NC(=O)c2cc(OC3CCOCC3)cc(-c3ncc(C)s3)c2)nn1
ASSAYED_TARGET: human P2X2/3 receptor (Homo sapiens (Human), UniProt P56373+Q9UBL9)
ASSAY_VALUE: 119

MOLECULE: Cc1cnc(-c2cc(OCC3CCN(C)CC3)cc(C(=O)N[C@H](C)c3cnc(C(F)(F)F)nc3)c2)s1
ASSAYED_TARGET: human P2X2/3 receptor (Homo sapiens (Human), UniProt P56373+Q9UBL9)
ASSAY_VALUE: 2880

MOLECULE: CCc1cnc(-c2cc(OC[C@@H]3CN(C)CCO3)cc(C(=O)N[C@H](C)c3ccc(C(F)(F)F)nn3)c2)s1
ASSAYED_TARGET: human P2X2/3 receptor (Homo sapiens (Human), UniProt P56373+Q9UBL9)
ASSAY_VALUE: 1560

Look at this molecule and give its reported IC50. `Cc1cnc(-c2cc(OC[C@@H]3COCCN3C)cc(C(=O)N[C@H](C)c3ccc(C(F)(F)F)nc3)c2)s1`
1250

Look at this molecule and give its reported IC50. `CC(C)c1cnc(-c2cc(OC[C@@H]3CCCO3)cc(C(=O)N[C@H](C)c3ccc(C(F)(F)F)nn3)c2)s1`
1710

Look at this molecule and give its reported IC50. Cc1cnc(-c2cc(OCC3CN(C(C)C)CCO3)cc(C(=O)N[C@H](C)c3cnc(C(F)(F)F)nc3)c2)s1 (stereo in doubt)
432

Look at this molecule and give its reported IC50. `Cc1ccc([C@@H](C)NC(=O)c2cc(OC[C@H]3CCOC3)cc(-c3ncc(C(C)C)s3)c2)nn1`
956

Look at this molecule and give its reported IC50. `Cc1ccc(CNC(=O)c2cc(OC[C@H]3CCOC3)cc(-c3ncc(C4CCC4)s3)c2)nn1`
1170

Look at this molecule and give its reported IC50. `Cc1cnc(-c2cc(O[C@@H]3CCOC3)cc(C(=O)N[C@H](C)c3ccc(C(F)F)nc3)c2)s1`
573

Look at this molecule and give its reported IC50. `CC#CCOc1cc(C(=O)N[C@H](C)c2cnc(C(F)(F)F)nc2)cc(-c2ncc(C)s2)c1`
383

Look at this molecule and give its reported IC50. `Cc1cnc(-c2cc(OCC3CC3)cc(C(=O)N[C@H](C)c3ccc(C(F)(F)F)nn3)c2)s1`
145

Look at this molecule and give its reported IC50. `CCc1cnc(-c2cc(O[C@H]3CCOC3)cc(C(=O)N[C@H](C)c3cnc(C(F)(F)F)nc3)c2)s1`
38

Look at this molecule and give its reported IC50. `Cc1cnc(-c2cc(OC[C@@H]3CCCO3)cc(C(=O)N[C@H](C)c3cnc(C(F)(F)F)nc3)c2)s1`
461

Look at this molecule and give its reported IC50. `Cc1cnc(-c2cc(OC34CCN(CC3)CC4)cc(C(=O)N[C@H](C)c3cnc(C(F)(F)F)nc3)c2)s1`
936

Look at this molecule and give its reported IC50. `CCc1cnc(-c2cc(OC[C@@H]3CCOC3)cc(C(=O)N[C@H](C)c3cnc(C(F)(F)F)nc3)c2)s1`
14

Look at this molecule and give its reported IC50. `Cc1cnc(-c2cc(O[C@@H]3CCOC3)cc(C(=O)N[C@H](C)c3ccc(Cl)cn3)c2)s1`
147

Look at this molecule and give its reported IC50. `Cc1ncc([C@@H](C)NC(=O)c2cc(OCC3CC3)cc(-c3ncc(C)s3)c2)cn1`
185

Look at this molecule and give its reported IC50. `Cc1cnc(-c2cc(OC[C@@H]3CCOC3)cc(C(=O)N[C@H](C)c3ccc(C(F)(F)F)nn3)c2)s1`
413
